system: MCF7; test: Growth inhibition of human MCF7 cells by MTT assay; assay type: functional, cell-based
Cut-off 40% on growth inhibition (GI), inclusive. At or above means Met; below means Not met.

>>> df
                                   compound  target_or_system  class_label
0  O=C1CCCN1C(c1cccs1)c1c(O)ccc2ccccc12 (stereo not drawn)              MCF7      Not met
1  O=C1CCCN1C(c1ccc(O)cc1)c1c(O)ccc2ccccc12 (stereo not drawn)              MCF7      Not met
2  O=C1CCCN1C(c1ccccc1Br)c1c(O)ccc2ccccc12 (stereo not drawn)              MCF7          Met
3  O=C1CCCN1C(c1ccccc1F)c1c(O)ccc2ccccc12 (stereo not drawn)              MCF7          Met
4  O=C1CCCN1C(c1ccc(F)cc1)c1c(O)ccc2ccccc12 (stereo not drawn)              MCF7          Met
5  COc1ccccc1C(c1c(O)ccc2ccccc12)N1CCCC1=O (stereo not drawn)              MCF7      Not met
6  O=C1CCCN1C(c1ccccc1)c1c(O)ccc2ccccc12 (stereo not drawn)              MCF7      Not met
7  O=C1CCCN1C(c1ccc(O)cc1O)c1c(O)ccc2ccccc12 (stereo not drawn)              MCF7      Not met

----------
target: Phosphatidylinositol 4,5-bisphosphate 3-kinase catalytic subunit alpha isoform (Homo sapiens, UniProt P42336); test: Inhibition of PI3K p110alpha (unknown origin) assessed as residual activity using PIP2 as substrate preincubated for 10 mins followed by substrate addition measured after 1 hr relative to control; parameters: concentration or dose not given beside the values
Sequence (P42336 whole entry, canonical isoform): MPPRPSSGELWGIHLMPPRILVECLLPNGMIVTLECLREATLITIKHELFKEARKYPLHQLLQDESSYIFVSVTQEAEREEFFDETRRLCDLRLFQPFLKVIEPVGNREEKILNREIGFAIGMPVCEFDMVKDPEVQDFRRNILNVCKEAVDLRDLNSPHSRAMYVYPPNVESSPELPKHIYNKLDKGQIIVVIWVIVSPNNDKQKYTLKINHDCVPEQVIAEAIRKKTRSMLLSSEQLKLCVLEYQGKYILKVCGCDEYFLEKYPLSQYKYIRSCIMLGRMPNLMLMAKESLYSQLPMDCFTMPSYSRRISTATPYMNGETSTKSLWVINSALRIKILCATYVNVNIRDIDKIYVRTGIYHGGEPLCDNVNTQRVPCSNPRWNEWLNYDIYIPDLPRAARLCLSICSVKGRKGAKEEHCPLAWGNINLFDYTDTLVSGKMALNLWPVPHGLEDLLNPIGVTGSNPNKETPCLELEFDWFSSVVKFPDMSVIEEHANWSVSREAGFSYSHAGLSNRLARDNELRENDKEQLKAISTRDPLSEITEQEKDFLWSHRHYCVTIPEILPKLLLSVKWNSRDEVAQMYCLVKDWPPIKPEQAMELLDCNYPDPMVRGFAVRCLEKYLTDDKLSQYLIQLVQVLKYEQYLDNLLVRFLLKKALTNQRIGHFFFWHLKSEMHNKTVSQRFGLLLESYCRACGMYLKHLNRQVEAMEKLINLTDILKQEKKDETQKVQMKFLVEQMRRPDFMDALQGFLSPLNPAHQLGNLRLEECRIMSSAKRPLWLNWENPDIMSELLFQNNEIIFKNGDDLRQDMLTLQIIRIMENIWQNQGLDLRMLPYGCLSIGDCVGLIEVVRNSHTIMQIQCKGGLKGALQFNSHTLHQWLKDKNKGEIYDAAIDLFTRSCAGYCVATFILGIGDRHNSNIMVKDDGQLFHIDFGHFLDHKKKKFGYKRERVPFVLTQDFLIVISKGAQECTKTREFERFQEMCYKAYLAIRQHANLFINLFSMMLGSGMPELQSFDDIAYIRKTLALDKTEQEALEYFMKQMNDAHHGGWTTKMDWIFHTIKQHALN
Entries are sorted into classes by Activity as follows: low: < 30%; middle: ≥ 30% and < 50%; high: ≥ 50%

In [3]: df
Out[3]:
                                    compound  class_label
 0  COC[C@H]1OC(=O)c2coc3c2[C@@]1(C)C1=C(C3=O)[C@@H]2CCC(=O)[C@@]2(C)C[C@H]1OC(C)=O         high
 1  O=C1CCCN1C(c1ccccc1)c1c(O)ccc2ccccc12 (stereo unspecified)       middle
 2  O=C1CCCN1C(c1cccs1)c1c(O)ccc2ccccc12 (stereo unspecified)          low
 3  O=C1CCCN1C(c1ccccc1Cl)c1c(O)ccc2ccccc12 (stereo unspecified)         high
 4  O=C1CCCN1C(c1ccc(Cl)cc1)c1c(O)ccc2ccccc12 (stereo unspecified)       middle
 5  O=C1CCCN1C(c1ccccc1F)c1c(O)ccc2ccccc12 (stereo unspecified)         high
 6  N#Cc1ccc(C(c2c(O)ccc3ccccc23)N2CCCC2=O)cc1 (stereo unspecified)          low
 7  O=C1CCCN1C(c1ccc(O)cc1)c1c(O)ccc2ccccc12 (stereo unspecified)          low
 8  Cc1ccc(C(c2c(O)ccc3ccccc23)N2CCCC2=O)cc1 (stereo unspecified)         high
 9  O=C1CCCN1C(c1ccc(O)cc1O)c1c(O)ccc2ccccc12 (stereo unspecified)          low
10  COc1ccccc1C(c1c(O)ccc2ccccc12)N1CCCC1=O (stereo unspecified)          low

----------
target: Phosphatidylinositol 4,5-bisphosphate 3-kinase catalytic subunit alpha isoform (Homo sapiens, UniProt P42336); experiment: Inhibition of PI3K p110alpha (unknown origin) using PIP2 as substrate preincubated for 10 mins followed by substrate addition measured after 1 hr
// values below are reported IC50
Endpoint Name: IC50

>>> print(df.to_string())
                                    molecule  measured_result
 0  O=C1CCCN1C(c1ccccc1Cl)c1c(O)ccc2ccccc12 (stereo unspecified)           ≥ 5 µM
 1  O=C1CCCN1C(c1ccc(F)cc1)c1c(O)ccc2ccccc12 (stereo unspecified)        ≥ 0.05 µM
 2  O=C1CCCN1C(c1ccccc1F)c1c(O)ccc2ccccc12 (stereo unspecified)           ≥ 5 µM
 3  N#Cc1ccc(C(c2c(O)ccc3ccccc23)N2CCCC2=O)cc1 (stereo unspecified)          ≥ 25 µM
 4  O=C1CCCN1C(c1cccc2ccccc12)c1c(O)ccc2ccccc12 (stereo unspecified)           < 5 µM
 5  O=C1CCCN1C(c1ccccc1Br)c1c(O)ccc2ccccc12 (stereo unspecified)        ≥ 0.05 µM
 6  O=C1CCCN1C(c1ccc(O)cc1O)c1c(O)ccc2ccccc12 (stereo unspecified)          ≥ 25 µM
 7  O=C1CCCN1C(c1ccccc1)c1c(O)ccc2ccccc12 (stereo unspecified)          ≥ 25 µM
 8  COc1cccc(C(c2c(O)ccc3ccccc23)N2CCCC2=O)c1 (stereo unspecified)          ≥ 15 µM
 9  COc1ccc(C(c2c(O)ccc3ccccc23)N2CCCC2=O)cc1 (stereo unspecified)          ≥ 10 µM
10  O=C1CCCN1C(c1ccc(O)cc1)c1c(O)ccc2ccccc12 (stereo unspecified)          ≥ 25 µM

----------
biological target: Phosphatidylinositol 4,5-bisphosphate 3-kinase catalytic subunit alpha isoform (Homo sapiens, UniProt P42336); test: Inhibition of PI3K p110alpha (unknown origin) using PIP2 as substrate preincubated for 10 mins followed by substrate addition measured after 1 hr
// values below are reported IC50
Endpoint Name: IC50

>>> df
                                   compound  measured_result
0  Cc1ccc(C(c2c(O)ccc3ccccc23)N2CCCC2=O)cc1 (stereo unspecified)           < 5 µM
1  O=C1CCCN1C(c1ccc(Cl)cc1Cl)c1c(O)ccc2ccccc12 (stereo unspecified)           < 1 µM
2  COc1ccccc1C(c1c(O)ccc2ccccc12)N1CCCC1=O (stereo unspecified)          ≥ 25 µM
3  O=C1CCCN1C(c1ccc(Cl)cc1)c1c(O)ccc2ccccc12 (stereo unspecified)          < 25 µM
4  O=C1CCCN1C(c1ccc(Br)cc1)c1c(O)ccc2ccccc12 (stereo unspecified)          ≥ 15 µM
5  O=C1CCCN1C(c1cccs1)c1c(O)ccc2ccccc12 (stereo unspecified)          ≥ 25 µM

----------
tested on: MCF7; assay: Growth inhibition of human MCF7 cells by MTT assay; assay type: functional, cell-based; conditions: Homo sapiens, MCF7
pIC50: −log10 of the molar value.
Endpoint Name: pIC50

In [3]: df
Out[3]:
                                    molecule  target_or_system  measured_result
 0  O=C1CCCN1C(c1ccccc1Br)c1c(O)ccc2ccccc12 (stereo unspecified)              MCF7             5.99
 1  N#Cc1ccc(C(c2c(O)ccc3ccccc23)N2CCCC2=O)cc1 (stereo unspecified)              MCF7             4.10
 2  O=C1CCCN1C(c1ccc(Cl)cc1)c1c(O)ccc2ccccc12 (stereo unspecified)              MCF7             4.04
 3  COc1ccccc1C(c1c(O)ccc2ccccc12)N1CCCC1=O (stereo unspecified)              MCF7             4.04
 4  O=C1CCCN1C(c1ccc(O)cc1O)c1c(O)ccc2ccccc12 (stereo unspecified)              MCF7             4.07
 5  O=C1CCCN1C(c1ccc(Br)cc1)c1c(O)ccc2ccccc12 (stereo unspecified)              MCF7             4.78
 6  O=C1CCCN1C(c1ccc(F)cc1)c1c(O)ccc2ccccc12 (stereo unspecified)              MCF7             6.01
 7  O=C1CCCN1C(c1ccc(Cl)cc1Cl)c1c(O)ccc2ccccc12 (stereo unspecified)              MCF7             5.37
 8  O=C1CCCN1C(c1ccccc1F)c1c(O)ccc2ccccc12 (stereo unspecified)              MCF7             5.32
 9  O=C1CCCN1C(c1cccs1)c1c(O)ccc2ccccc12 (stereo unspecified)              MCF7             4.09
10  COc1cccc(C(c2c(O)ccc3ccccc23)N2CCCC2=O)c1 (stereo unspecified)              MCF7             4.82

----------
test system: MCF7; test: Growth inhibition of human MCF7 cells by MTT assay; assay type: functional, cell-based; conditions: Homo sapiens, MCF7
pIC50: −log10 of the molar value.
Cut-off 5 on pIC50, inclusive. At or above means satisfied; below means not satisfied.

>>> df
                                   compound    class_label
0  O=C1CCCN1C(c1ccc(O)cc1)c1c(O)ccc2ccccc12 (stereo unspecified)  not satisfied
1  O=C1CCCN1C(c1ccccc1Cl)c1c(O)ccc2ccccc12 (stereo unspecified)      satisfied
2  O=C1CCCN1C(c1ccccc1)c1c(O)ccc2ccccc12 (stereo unspecified)  not satisfied
3  Cc1ccc(C(c2c(O)ccc3ccccc23)N2CCCC2=O)cc1 (stereo unspecified)      satisfied
4  O=C1CCCN1C(c1cccc2ccccc12)c1c(O)ccc2ccccc12 (stereo unspecified)      satisfied
